- Target Of Assay: T1, Suc-AAPA-pNA
- T1 chain: AAPA
- Condition Label: scale: relative to the substrate with the highest activity
Endpoint Label: relative activity (initial increase in OD405)

# Protein, Value
rows = [
    ("Serine protease bppB from Bacillus pumilus JA16 (protein) VVIGDDGRTKVTNTRVAPYNSIAYITFGGSSCTGTLIAPNKILTNGHCVYNTATRSYSAKGSVYPGMNDSTAVNGSANMTEFYVPSGYINTGASQYDFAVIKTDTNIGNTVGYRSIRQVTNLTGTTIKISGYPGDKMRSTGKVSQWEMSGPVTREDTNLAYYTIDTFSGNSGSAMLDQNQQIVGVHNAGYSNGTINGGPKATAAFVEFINYAKAQ", 0),
    ("Serine protease from Nocardiopsis sp NRRL 18262 (protein) ADIIGGLAYTMGGRCSVGFAATNAAGQPGFVTAGHCGRVGTQVTIGNGRGVFEQSVFPGNDAAFVRGTSNFTLTNLVSRYNTGGYATVAGHNQAPIGSSVCRSGSTTGWHCGTIQARGQSVSYPEGTVTNMTRTTVCAEPGDSGGSYISGTQAQGVTSGGSGNCRTGGTTFYQEVTPMVNSWGVRLRT", 0.0001),
    ("Glutamyl endopeptidase blaSE from Bacillus licheniformis (protein) SVIGSDDRTRVTNTTAYPYRAIVHISSSIGSCTGWMIGPKTVATAGHCIYDTSSGSFAGTATVSPGRNGTSYPYGSVKSTRYFIPSGWRSGNTNYDYGAIELSEPIGNTVGYFGYSYTTSSLVGTTVTISGYPGDKTAGTQWQHSGPIAISETYKLQYAMDTYGGQSGSPVFEQSSSRTNCSGPCSLAVHTNGVYGGSSYNRGTRITKEVFDNLTNWKNSAQ", 0.0001),
    ("Glutamyl endopeptidase II sprE from Streptomyces griseus (protein) VLGGGAIYGGGSRCSAAFNVTKGGARYFVTAGHCTNISANWSASSGGSVVGVREGTSFPTNDYGIVRYTDGSSPAGTVDLYNGSTQDISSAANAVVGQAIKKSGSTTKVTSGTVTAVNVTVNYGDGPVYNMVRTTACSAGGDSGGAHFAGSVALGIHSGSSGCSGTAGSAIHQPVTEALSAYGVTVY", 0),
    ("Subtilisin 309 variant from Bacillus clausii (protein) AQSVPWGIERVQAPAAHNRGLTGSGVKVAVLDTGISTHPDLRIRGGASFVPGEPSTQDGNGHGTHVAGTIAALDNSIGVLGVAPSEALYAVKVLGASGSGSVSSIAQGLEWAGNNGMHVANLSLGSPSPSATLEQAVNSATSRGVLVVAASGNSGAGSISYPARYANAMAVGATDQNNNRASFSQYGAGLDIVAPGVNILSTWPGSTYASLNGTSMATPHVAGAAALVKQKNPSWSNVQIRNHLKNTATSLGDTWEYGSGLVNAEAATR", 0.0566),
    ("Trypsin from Fusarium oxysporum (protein) IVGGTSASAGDFPFIVSISRNGGPWCGGSLLNANTVLTAAHCVSGYAQSGFQIRAGSLSRTSGGITSSLSSVRVHPSYSGNNNDLAILKLSTSIPSGGNIGYARLAASGSDPVAGSSATVAGWGATSEGGSSTPVNLLKVTVPIVSRATCRAQYGTSAITNQMFCAGVSSGGKDSCQGDSGGPIVDSSNTLIGAVSWGNGCARPNYSGVYASVGALRSFIDTYA", 0),
]
